Molecular target: T1, human CDH6 on cells (human, UniProt P55285 54-790)
T1 sequence: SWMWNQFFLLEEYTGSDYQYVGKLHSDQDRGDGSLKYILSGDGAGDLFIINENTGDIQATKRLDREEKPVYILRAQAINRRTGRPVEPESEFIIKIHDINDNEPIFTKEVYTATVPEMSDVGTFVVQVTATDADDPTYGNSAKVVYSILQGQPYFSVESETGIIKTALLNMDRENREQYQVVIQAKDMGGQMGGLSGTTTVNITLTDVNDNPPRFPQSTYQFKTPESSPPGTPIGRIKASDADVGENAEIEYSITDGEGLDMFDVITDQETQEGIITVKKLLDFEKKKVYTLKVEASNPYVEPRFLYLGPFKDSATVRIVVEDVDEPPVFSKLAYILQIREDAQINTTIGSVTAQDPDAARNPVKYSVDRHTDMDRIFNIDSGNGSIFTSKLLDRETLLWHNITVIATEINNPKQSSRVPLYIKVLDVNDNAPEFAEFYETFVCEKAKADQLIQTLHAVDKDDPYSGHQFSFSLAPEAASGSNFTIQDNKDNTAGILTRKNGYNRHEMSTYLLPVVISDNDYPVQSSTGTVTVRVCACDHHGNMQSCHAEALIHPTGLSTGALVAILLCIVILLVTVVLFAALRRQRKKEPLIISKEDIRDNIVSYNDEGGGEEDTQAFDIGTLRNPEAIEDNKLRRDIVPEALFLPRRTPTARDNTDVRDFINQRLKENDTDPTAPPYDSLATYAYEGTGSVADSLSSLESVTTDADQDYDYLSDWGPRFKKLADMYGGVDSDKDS
Experiment: cell-based or functional assay
Endpoint: percent inhibition at 1.22 nM ADC, SNU8 cells (%)
One number for each entry, in %.

Here is how some binders turned out for percent inhibition at 1.22 nM ADC, SNU8 cells.
Binder	Data value
NOV0682-SMCC-DM1 (antibody, human IgG1, kappa, V domains shown, SMCC-DM1 on primary amines, sites not stated) VH: QVQLVESGGGLVKPGGSLRLSCAASGFTFSSYAISWVRQAPGKGLEWVGFIKSNADGYTTNYAAPVKGRFTISRDDSKNTLYLQMNSLKTEDTAVYYCARIRYFRNWDYWGQGTLVTVSS VL: DIQMTQSPSSLSASVGDRVTITCRASQTINSYLNWYQQKPGKAPKLLIYRASNLQSGVPSRFSGSGSGTDFTLTISSLQPEDFATYYCQQGDSSWTFGQGTKVEIKR	10.8
NOV0709-SMCC-DM1 (antibody, human IgG1, lambda, V domains shown, SMCC-DM1 on primary amines, sites not stated) VH: QVQLLESGGGLVQPGGSLRLSCAASGFTFSTYYMHWVRQAPGKGLEWVSVISSDGSFTFYADSVKGRFTISRDNSKNTLYLQMNSLRAEDTAVYYCARHGYGAFDYWGQGTLVTVSS VL: DIALTQPASVSGSPGQSITISCTGTSSDVGSYNYVSWYQQHPGKAPKLMIYYVSNRPSGVSNRFSGSKSGNTASLTISGLQAEDEADYYCASYTHQGSWVFGGGTKLTVLG	-7.7

Now for the binder whose percent inhibition at 1.22 nM ADC, SNU8 cells we want.
### Prompt Read the entry NOV0712-SMCC-DM1 (antibody, human IgG1, kappa, V domains shown, SMCC-DM1 on primary amines, sites not stated) VH: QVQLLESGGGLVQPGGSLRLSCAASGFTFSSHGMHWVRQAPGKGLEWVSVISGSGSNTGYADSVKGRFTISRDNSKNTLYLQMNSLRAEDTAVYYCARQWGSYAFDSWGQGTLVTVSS VL: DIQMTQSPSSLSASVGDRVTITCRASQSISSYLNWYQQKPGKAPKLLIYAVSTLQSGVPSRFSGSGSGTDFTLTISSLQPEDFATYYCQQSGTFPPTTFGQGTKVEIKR and write its reported percent inhibition at 1.22 nM ADC, SNU8 cells.
### Response 31.4
